Provide the reported z-score of each item.
Test: PSAC antagonists in infected red cells, primary screen, cell-based, P. falciparum Indochina, OD700, 2 h (AID 1155);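 further: lysis reports solute entry through the parasite surface anion channel PSAC; channel blockers reduce lysis of infected cells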
Conditions: P. falciparum Indochina infected erythrocytes, osmotic lysis OD700; higher = more signal, called active from +8 up or from −8 down
Give bare numbers.

Recorded results for 5 molecules are shown here.
{"molecule": "CC(C)C[C@@H]1NC(=O)[C@@H]2C[C@H](C(=O)NCCCCCC[N+](C)(C)C)[C@H](c3ccc(O)cc3)N2C1=O", "z-score": 0.637}
{"molecule": "CCN(CC)c1ccc(N2CC=CC34O[C@@H]5C=CCCOC(=O)C5[C@H]3C(=O)N(CCCCCO)[C@@H]4C2=O)cc1 (stereo partly drawn)", "z-score": -0.0803}
{"molecule": "Cc1ccc(F)cc1S(=O)(=O)N[C@@H]1CCN(Cc2ccc(-c3ccccc3)cc2)C1", "z-score": 2.34}
{"molecule": "CC(C)C(=C=CC[C@H](O)c1ccccc1OCCO)C[C@H](O)c1ccccn1", "z-score": 0.673}
{"molecule": "COCCOC(=O)N1C(=O)[C@@]2(c3cc(C#CCC(C(=O)OC)C(=O)OC)ccc31)[C@H](c1ccccc1OCCO)N1[C@H](c3ccccc3)[C@H](c3ccccc3)OC(=O)[C@H]1[C@@H]2C(=O)N1CCc2cc(OC)c(OC)cc2C1", "z-score": -0.226}

Quick request: z-score for each listed item, please.
1. CN1C(=O)C2C=CC(C(O)c3ccccn3)N(Nc3ccccc3)C2C1=O (stereo not drawn)
2. COc1ccc(NN2C(C(O)c3ccc(OC)c(OCc4ccccc4)c3)C=CC3C(=O)N(C4CCCCC4)C(=O)C32)cc1 (stereo not drawn)
3. COCC(=C=CC[C@@H](O)c1ccc(CO)o1)CCO

Response given:
1.09
1.38
-0.908

# batch size: 3; output z-score per entry
1. COC(=O)c1ccc(C(O)C2C=CC3C(=O)N(c4ccccc4)C(=O)C3N2Nc2ccc(C#N)cc2)o1 (stereo not drawn)
2. O=C(CS)NCCCCCCNC(=O)[C@H]1C[C@H]2C(=O)N3CCC[C@H]3C(=O)N2[C@H]1c1cccc(OCCO)c1
3. CO[C@H]1O[C@H](CO)[C@@H](OC(=O)Nc2ccc3c(c2)OCO3)[C@H](OC(=O)Nc2ccccc2)[C@H]1OC(=O)Nc1ccccc1

Response given:
1. 1.66
2. 0.331
3. 0.777

Hi! Can you tell me z-score for each of these molecules?
1. CCC[C@@H]1C=C(C(=O)O)[C@H](c2ccc(C)cc2)N1S(=O)(=O)c1ccc(C)cc1
2. COCCOC(=O)N1C(=O)[C@@]2(c3cc(C#CCNC(N)=O)ccc31)[C@H](C(=O)N1CCc3cc(OC)c(OC)cc3C1)[C@H]1C(=O)O[C@H](c3ccccc3)[C@H](c3ccccc3)N1[C@@H]2c1ccc(OCCO)cc1
3. CC(C)N1C(=O)[C@@]2(c3ccc([N+](=O)[O-])cc3)CC(=O)N(CC34CC5CC(CC(C5)C3)C4)[C@@H]2c2ccc(CO)cc21
4. CC(C)(C)OC(=O)CC[C@@]1(C(=O)NCCN2CCOCC2)N=C(c2ccc(OCCCO)cc2)O[C@@H]1c1ccccc1
5. CCOC(=O)C1=CCC(c2ccc([N+](=O)[O-])cc2)N(S(=O)(=O)c2ccc(C)cc2)C1 (stereo not drawn)
6. C=C[C@H](COC(C)=O)N(Cc1ccc(OC(C)=O)c(OC)c1)S(=O)(=O)c1ccc(Br)cc1

Response given:
[0.932, 1.37, 0.328, 1.8, 1.91, -1.11]

Please report z-score for every entry that follows.
1. C=C(COC)/C(=C/C[C@H](OC(=O)c1ccncc1)c1cccc(OCCO)c1)c1cc(C(=O)OC)ccc1OC
2. Cc1ccc(S[C@]2(C(=O)NCc3ccccc3)CC(=O)N(Cc3ccccc3)[C@@H]2c2ccc(CO)cc2)cc1
3. COC(=O)c1ccc(C23CC2(C(NP(=O)(c2ccccc2)c2ccccc2)c2ccccc2)C3)cc1 (stereo not drawn)
4. O=C1[C@]2(CO)C=C(Br)[C@@H](C[C@@H]2c2ccccc2)[C@@]12CO2
5. CCCCCN1CC=CC23O[C@@H]4/C=C\CCC(C)OC(=O)C4[C@H]2C(=O)N(CCCCCO)[C@@H]3C1=O (stereo partly drawn)

Response given:
1. 2.26
2. 0.115
3. 0.191
4. 0.0579
5. -0.524

Challenge: Dear colleague, I am looking for the recorded z-score of the following molecule: `[N-]=[N+]=Nc1ccccc1C[C@]1(C(=O)NCCN2CCOCC2)N=C(c2ccc(OCCCO)cc2)O[C@H]1c1ccccc1`
Response given: 1.53
